Cited source: paper PMC11480844

B1: H2-Kb / Ed39 (parent complex)
chain 1: GEQVEQRPPHLSVREGDSAVIICTYTDPNSYYFFWYKQEPGAGLQLLMKVFSSTEINEGQGFTVLLNKKDKQLSLNLTAAHPGDSAVYFCATMSNYNVLYFGSGTKLTVEP
chain 2: GALVYQYPRRTICKSGTSMRMECQAVGFQATSVAWYRQSPQKTFELIALSTVNSAIKYEQNFTQEKFPISHPNLSFSSMTVLNAYLEDRGLYLCGARDGSYEQYFGPGTRLTVL
chain 3: not shown
chain 4: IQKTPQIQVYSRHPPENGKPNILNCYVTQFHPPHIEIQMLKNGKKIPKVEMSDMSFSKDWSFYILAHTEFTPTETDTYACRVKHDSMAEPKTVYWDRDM
chain 5: SIINFEKL

- Variants of: B1
- RUN_DESCRIPTION: % of reporter cells activated (NFAT-GFP), raw; note: test concentration or dose not given here
ENDPOINT: ratio to parent

Reference set (8 entries):
| MUTATION_SPEC | ratio to parent |
| --- | --- |
| chain 5 N4H | 0.124 |
| chain 5 E6Q | 0.0946 |
| chain 5 E6Y | 0.0117 |
| chain 5 L8V | 0.591 |
| chain 5 S1H | 0.0798 |
| chain 5 K7H | 0.0199 |
| chain 5 S1L | 0.00419 |
| chain 5 S1R | 0.0616 |

(P) chain 5 K7L
(Q) chain 5 E6S
(R) chain 5 I3S
## Task Please produce an ascending ranking of these variants based on ratio to parent. Submit the labels in the order that the ranking request calls for.
## Result Q, R, P

(A) chain 5 K7Y
(B) chain 5 I3A
## Task Of the two listed items, A and B , which carries the larger ratio to parent figure? Field: selected label. Fill in the label of the entry you choose.
## Result B
(B: 0.56, A: 0.0483)

(a) chain 5 N4F
(b) chain 5 I2Q
## Task Identify the item whose ratio to parent is the smaller number: a or b Field: selected label. Fill in the label of the entry you choose.
## Result a
